FYI, the data here is from paper PMC6821881.

tested_on: ZIKV E protein (GZ01) (Zika virus (strain GZ01))
protocol_details: ELISA
experimental_readout: EC50 (ng/mL)
Just the number in ng/mL, nothing appended.

2H-1 (antibody, V domains shown) VH: QVQLVQSGAEVKKPGASVKVSCKASGYTFTSYDINWVRQATGQGLEWMGWMNPNSGNTGYAQKFQGRVTMTRNTSISTAYMELSSLRSEDTAVYYCARVSSGSYYGSYYYYYYGMDVWGQGTTVTVSS VL: SYELTQPPSASGTPGQRVTISCSGSSSNIGNNYVHWYQQLPGSAPKLLIYRNNQRPSGVPDRFSGSKSGTSGSLAISGLRSEDEADYYCASWDDSLSGHWVFGGGTKVTVL | 5.3

Please look at the following binder next.
Input 2H-5 (antibody, V domains shown) VH: QVQLVQSGAEVKKPGASVNVSCKASGYTFTMYDINWVRQTTGQGLEWMGWMNPNSGNTGYAQKFQGRVTMTRNTSISTAYMELSSLRSEDTAVYYCARVSSGSYYGSYYYYYYGMDVWGQGTTVTVSS VL: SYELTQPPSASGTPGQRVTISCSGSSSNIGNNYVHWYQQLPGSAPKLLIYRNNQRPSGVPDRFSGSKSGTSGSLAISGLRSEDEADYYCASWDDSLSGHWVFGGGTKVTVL . Output EC50: 6.2
